# Assayed Target: alpha-thrombin (mouse) (Mus musculus, UniProt P19221;P19221 312-360;361-618)
# Test Summary: SPR; SPR (Biacore X100, CM5, single-cycle kinetics, 1:1 fit): PBS pH 7.4, 0.05% (v/v) Tween 20; aptamers annealed in PBS (95 to 25 C); 1 M NaCl regeneration; assay temperature not stated
# Conditions Used: protein: commercial; copies: 1;1; predicted G4 with stem
Measurement Kind: pKd
In textbook form, pKd equals minus log to base ten of the concentration in mol/L.

I have this binder here, AGGTCAGATGATGGGGATGGGGGGTTGGAGGAATGGATGACCT (structured_DNA) [M08s-1 (M08s)] , and I need its recorded pKd.
6.31
